FYI, the data here is from patent US11723888B2.

- testedOn: purified αvβ3 (Homo sapiens, UniProt P05106+P06756)
- Sequence (P06756 31-889 limits assumed): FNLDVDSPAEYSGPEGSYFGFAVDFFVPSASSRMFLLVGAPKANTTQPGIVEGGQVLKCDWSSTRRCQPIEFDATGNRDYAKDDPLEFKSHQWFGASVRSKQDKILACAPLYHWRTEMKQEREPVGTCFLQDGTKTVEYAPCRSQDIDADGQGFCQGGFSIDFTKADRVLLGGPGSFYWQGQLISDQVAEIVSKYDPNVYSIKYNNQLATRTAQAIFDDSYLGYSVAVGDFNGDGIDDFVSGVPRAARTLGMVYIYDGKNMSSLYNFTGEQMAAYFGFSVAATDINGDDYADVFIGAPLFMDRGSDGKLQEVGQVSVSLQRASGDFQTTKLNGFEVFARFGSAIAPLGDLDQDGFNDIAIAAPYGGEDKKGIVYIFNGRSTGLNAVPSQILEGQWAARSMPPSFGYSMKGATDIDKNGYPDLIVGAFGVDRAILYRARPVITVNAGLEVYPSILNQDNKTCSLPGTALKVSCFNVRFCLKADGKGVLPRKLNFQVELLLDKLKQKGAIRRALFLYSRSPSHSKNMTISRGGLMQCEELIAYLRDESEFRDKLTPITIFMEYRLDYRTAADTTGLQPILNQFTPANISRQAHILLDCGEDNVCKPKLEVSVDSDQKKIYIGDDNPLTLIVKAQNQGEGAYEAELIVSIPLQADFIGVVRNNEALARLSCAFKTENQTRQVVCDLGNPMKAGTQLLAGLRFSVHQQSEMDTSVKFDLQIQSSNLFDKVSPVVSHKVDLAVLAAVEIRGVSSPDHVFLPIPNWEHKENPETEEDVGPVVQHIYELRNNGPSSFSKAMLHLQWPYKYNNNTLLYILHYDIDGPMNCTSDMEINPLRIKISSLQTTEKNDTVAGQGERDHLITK
- Sequence (P06756 891-1048 limits assumed): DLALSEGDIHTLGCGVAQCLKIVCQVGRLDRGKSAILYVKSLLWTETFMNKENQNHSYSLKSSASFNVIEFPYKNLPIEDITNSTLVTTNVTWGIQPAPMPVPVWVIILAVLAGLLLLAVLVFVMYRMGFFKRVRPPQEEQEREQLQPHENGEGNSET
- Sequence (P05106 27-788): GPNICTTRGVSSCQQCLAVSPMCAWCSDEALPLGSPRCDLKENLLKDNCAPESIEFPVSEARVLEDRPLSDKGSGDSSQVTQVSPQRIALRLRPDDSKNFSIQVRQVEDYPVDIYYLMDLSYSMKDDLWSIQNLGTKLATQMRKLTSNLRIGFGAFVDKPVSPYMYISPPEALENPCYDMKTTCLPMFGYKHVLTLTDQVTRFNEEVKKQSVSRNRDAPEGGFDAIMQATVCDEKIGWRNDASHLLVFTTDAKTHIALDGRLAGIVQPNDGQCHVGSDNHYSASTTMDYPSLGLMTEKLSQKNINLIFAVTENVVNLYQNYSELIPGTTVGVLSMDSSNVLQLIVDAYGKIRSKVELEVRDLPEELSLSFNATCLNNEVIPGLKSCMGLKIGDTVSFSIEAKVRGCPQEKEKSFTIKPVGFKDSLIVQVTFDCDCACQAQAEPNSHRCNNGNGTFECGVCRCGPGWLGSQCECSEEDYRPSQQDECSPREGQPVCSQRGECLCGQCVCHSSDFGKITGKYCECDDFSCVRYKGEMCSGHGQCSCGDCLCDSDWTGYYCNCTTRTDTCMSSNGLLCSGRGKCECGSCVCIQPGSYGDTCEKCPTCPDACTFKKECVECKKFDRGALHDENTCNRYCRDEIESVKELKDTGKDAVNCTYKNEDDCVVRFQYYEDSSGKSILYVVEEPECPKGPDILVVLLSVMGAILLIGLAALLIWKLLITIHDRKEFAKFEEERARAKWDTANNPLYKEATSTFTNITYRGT
- assayDetails: Binding affinity to purified αvβ3 (fibrinogen-coated plate, IC50)
- experimentalConditions: purified αvβ3, fibrinogen-coated plates, 2 hours room temperature
readoutLabel: IC50 (nM)
A number alone suffices; assume nM.

*Q* Data request, read-out IC50, for "O=C(O)Cc1cc(I)c(Oc2cc(I)c(O)c(I)c2)c(I)c1"
*A* 105
